B1: Osa-1-4 twister ribozyme (parent)
chain: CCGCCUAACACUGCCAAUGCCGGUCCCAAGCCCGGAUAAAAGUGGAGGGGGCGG

variants of: B1; test: self-cleavage, relative activity (ratio to wild type); higher = more cleavage; co-transcriptional
Consider the reported self-cleavage of an entry and match it to a band in lo: < 0.06; mid: ≥ 0.06 and < 0.1; hi: ≥ 0.1

sequence_entry="CCGCCUAACACUGCCAAUCCCGGUCCCAAGCCCGGAUAAAAGUGGAGGCGGCGG [G19C G49C]" class_assignment=lo
sequence_entry="CCGCCUAACACUGCCAAUGCCGGUCCCAAGCCCGGAUAAAAGUGCAGGGGGCGA [G45C G54A]" class_assignment=mid
sequence_entry="CCGCCUAACAUUGCCAAUGCCGGUCCCAAGCCCGGGUAAAAGUGGAGGGGGCGG [A36G C11U]" class_assignment=hi
sequence_entry="CCGCCUAACACUGCCAAGGCCGGUCCCUAGCCCGGAUAAAAGUGGAGGGGGCGG [A28U U18G]" class_assignment=hi
sequence_entry="CCGCCUAACACUUCCAAUGCCGGUCCCAAGCCCGGAUAAAAGUGUAGGGGGCGG [G13U G45U]" class_assignment=lo
sequence_entry="CCGCCUAACACUGCCAAUGCCGGUCCCAAGCUCGGAUAAAAGUGGAGGCGGCGG [C32U G49C]" class_assignment=lo
sequence_entry="CCGCCUAACACUGCCAAUGCAGGUCCCAAGCCCGGAUAAAAGUGGAUGGGGCGG [C21A G47U]" class_assignment=mid
sequence_entry="CCGCCUAACACUGCCAAUGCCGGUCCCAAGCCCGGAUAAAAGCGGAGGGGGGGG [C52G U43C]" class_assignment=hi
sequence_entry="CCGCCUAACACUGCCAAUGCCGGUCCCAAGCUCGGAUAAAAGGGGAGGGGGCGG [C32U U43G]" class_assignment=mid
sequence_entry="CCGCCUAACACUGCCAAUGCCGGUCCCAAGCCCGGCUAAAAGUGGAGGGAGCGG [A36C G50A]" class_assignment=hi
sequence_entry="CCGCCUAACACUGCCAAUGCCGGUCCCAAGCGCGGAUAAAAUUGGAGGGGGCGG [C32G G42U]" class_assignment=lo
sequence_entry="CCGCCUAACACUGCCAAUGUCGGUCCCAAGCCUGGAUAAAAGUGGAGGGGGCGG [C20U C33U]" class_assignment=hi
sequence_entry="CCGCCUAACACUGCCAAUGGCGGUCCCAAGCCCGGAUAAAAGUGGAGGGGGAGG [C20G C52A]" class_assignment=mid
sequence_entry="CCGCCUAAUACUGCCAAUGCCGGUCCCAAGCCCGGAGAAAAGUGGAGGGGGCGG [C9U U37G]" class_assignment=hi
sequence_entry="CCGCCUAACACUGCCAAUGCGGGUCCCAAGCCCGGAUAAAAGUGGAGCGGGCGG [C21G G48C]" class_assignment=lo
sequence_entry="CCGCCUAACACUGCCGAUGCCGGUCCCAAGCCCGGAUAAAAGUGGUGGGGGCGG [A16G A46U]" class_assignment=hi
sequence_entry="CCGCCUAACACCGCCAAUGCCCGUCCCAAGCCCGGAUAAAAGUGGAGGGGGCGG [G22C U12C]" class_assignment=mid
sequence_entry="CCGCCUACCACUGCCAAUGCCGGUCCCGAGCCCGGAUAAAAGUGGAGGGGGCGG [A28G A8C]" class_assignment=lo
